These measurements were taken from PubChem BioAssay AID624167.

- TARGET DESC: PEG-3 (UniProt Q6IN02)
- Sequence (Q6IN02 whole entry, looked up): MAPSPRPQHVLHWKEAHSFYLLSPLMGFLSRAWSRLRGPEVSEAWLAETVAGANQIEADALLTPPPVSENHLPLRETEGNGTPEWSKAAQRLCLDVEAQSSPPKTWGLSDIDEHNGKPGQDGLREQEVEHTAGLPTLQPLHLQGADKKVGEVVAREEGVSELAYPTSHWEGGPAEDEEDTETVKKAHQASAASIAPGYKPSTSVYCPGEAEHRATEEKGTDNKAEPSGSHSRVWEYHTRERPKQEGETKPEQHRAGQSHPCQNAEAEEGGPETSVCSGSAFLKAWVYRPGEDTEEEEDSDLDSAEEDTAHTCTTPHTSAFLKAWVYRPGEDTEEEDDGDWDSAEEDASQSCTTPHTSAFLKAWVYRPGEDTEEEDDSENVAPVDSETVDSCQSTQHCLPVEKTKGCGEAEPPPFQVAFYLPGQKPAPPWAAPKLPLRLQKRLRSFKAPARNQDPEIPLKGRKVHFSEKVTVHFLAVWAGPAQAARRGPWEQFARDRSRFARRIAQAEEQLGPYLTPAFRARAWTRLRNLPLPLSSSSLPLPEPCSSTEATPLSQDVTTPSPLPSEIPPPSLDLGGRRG
- ASSAY NAME: Peg3 promoter luciferase inhibitors, potency, dose response, cell-based, HeLa, CREF/GAPDH counter-screen panel (AID 624167)
- STUDY CONDITIONS: HeLa PEG-Prom luciferase reporter, overnight, CREF/GAPDH counter-screens, mean of runs
Active and inactive are the calls of the source.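 How the source made its calls: active means mean IC50 for reducing PEG3 promoter reporter signal at or below a set limit, with IC50 above the limit in both counter screens; inactive means the rest, including counter screen hits.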
Labels: class 1 for active, class 0 for inactive

>  <COMPOUND>
COC(=O)c1ccc(Nc2cc(C)nc3ccc(C)cc23)cc1

>  <CLASS NAME>
class 1

$$$$
>  <COMPOUND>
CC1(C)CC(NC(=O)c2cccc(S(=O)(=O)N(Cc3ccccc3)c3ccccc3)c2)CC(C)(C)N1

>  <CLASS NAME>
class 1

$$$$
>  <COMPOUND>
COc1cc(OC)c(OC)cc1CCC(C)NCCC(c1ccccc1)c1ccccc1 (stereo not given)

>  <CLASS NAME>
class 1

$$$$
>  <COMPOUND>
COc1ccc(-c2sc3ccccc3c2-c2ccc(OCCN3CCCCC3)cc2)cc1

>  <CLASS NAME>
class 0

$$$$
>  <COMPOUND>
CS(=O)(=O)c1ccc(-c2cn3cc(C(=O)O)ccc3n2)cc1

>  <CLASS NAME>
class 1

$$$$

----------
- TARGET DESC: UniProtKB Q6IN02
- ASSAY NAME: Peg3 promoter luciferase inhibitors, potency, dose response, cell-based, HeLa, CREF/GAPDH counter-screen panel (AID 624167)
- STUDY CONDITIONS: HeLa PEG-Prom luciferase reporter, overnight, CREF/GAPDH counter-screens, mean of runs
Active and inactive are the calls of the source.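 Rule for the calls: active = mean IC50 for reducing PEG3 promoter reporter signal at or below a set limit, with IC50 above the limit in both counter screens; inactive = the rest, including counter screen hits.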
Labels: yes for active, no for inactive

>  <MOLECULE>
CN(C)c1ccc(C=c2c3ccccc3n3c2cc(-c2ccccc2)[n+]3C)cc1

>  <CLASS NAME>
yes

$$$$
>  <MOLECULE>
CCCN(CC(=O)Nc1ccccc1C)C(=O)CCl

>  <CLASS NAME>
no

$$$$
>  <MOLECULE>
Cc1ccc(-n2c(N)c(C(=O)Nc3c(C)n(C)n(-c4ccccc4)c3=O)c3nc4ccccc4nc32)cc1

>  <CLASS NAME>
yes

$$$$
>  <MOLECULE>
COc1ccc(CNC(=O)Nc2nc(C(N)Cc3ccc(F)cc3)cs2)cc1 (stereo unspecified)

>  <CLASS NAME>
yes

$$$$
>  <MOLECULE>
COc1cc(C=NO)nc(-c2ccccn2)c1

>  <CLASS NAME>
yes

$$$$
>  <MOLECULE>
Cc1oc(-c2ccc3c(c2)OCCO3)cc1C(=O)O

>  <CLASS NAME>
yes

$$$$
>  <MOLECULE>
Cc1cc(C(=O)CN2C(=O)c3ccccc3S2(=O)=O)c(C)n1-c1ccccc1

>  <CLASS NAME>
yes

$$$$
>  <MOLECULE>
CCC(C)NCCOCCOc1ccc(Cl)c2ccccc12 (stereo unspecified)

>  <CLASS NAME>
yes

$$$$
>  <MOLECULE>
Cc1ccc(-c2cc3c(N=O)c4ccccc4c-3n[nH]2)cc1

>  <CLASS NAME>
yes

$$$$
>  <MOLECULE>
O=C(Nc1ccc(Cc2ccncc2)cc1)c1ccc([N+](=O)[O-])o1

>  <CLASS NAME>
yes

$$$$
>  <MOLECULE>
CCN(CC)CCn1c2ccccc2c2cnc(N)c(C#N)c21

>  <CLASS NAME>
yes

$$$$

----------
- Test system: Rat fibroblasts (CREF)
- ASSAY NAME: Peg3 promoter luciferase inhibitors, potency, dose response, cell-based, HeLa, CREF/GAPDH counter-screen panel (AID 624167)
- STUDY CONDITIONS: CREF/GAPDH counter-screens, mean of runs
The source made the active and inactive calls.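 The calls were made as follows: active = mean IC50 for reducing PEG3 promoter reporter signal at or below a set limit, with IC50 above the limit in both counter screens; inactive = the rest, including counter screen hits.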
Labels: true (1) (active), false (0) (inactive)

>  <COMPOUND>
O=C(CN1C(=O)c2ccccc2S1(=O)=O)c1ccc2c(c1)OCCCO2

>  <CLASS NAME>
true (1)

$$$$
>  <COMPOUND>
OCC1OC(n2ccc3c(NO)ncnc32)C(O)C1O (stereo unspecified)

>  <CLASS NAME>
true (1)

$$$$
>  <COMPOUND>
COc1cc(NS(C)(=O)=O)ccc1Nc1c2ccccc2nc2ccccc12

>  <CLASS NAME>
true (1)

$$$$
>  <COMPOUND>
Cc1oc(-c2ccc3c(c2)OCCO3)cc1C(=O)O

>  <CLASS NAME>
true (1)

$$$$
>  <COMPOUND>
CC(=O)c1cccc(-c2ccnc3c2CC(C(=O)Nc2cccc(NS(C)(=O)=O)c2)O3)c1 (stereo unspecified)

>  <CLASS NAME>
false (0)

$$$$
>  <COMPOUND>
Cc1ccc(-c2cc3c(N=O)c4ccccc4c-3n[nH]2)cc1

>  <CLASS NAME>
true (1)

$$$$
>  <COMPOUND>
c1ccc(-c2noc(-c3ccc4c(c3)OCO4)n2)nc1

>  <CLASS NAME>
true (1)

$$$$
>  <COMPOUND>
Cc1cccc(OCC(=O)NCC(=O)N/N=C/c2cc(Br)cc(Br)c2O)c1

>  <CLASS NAME>
true (1)

$$$$
>  <COMPOUND>
C=C1CC2(OC1=O)c1ccccc1CCc1ccccc12

>  <CLASS NAME>
true (1)

$$$$
>  <COMPOUND>
C=CCn1c(C)cc(C(=O)CN2C(=O)c3ccccc3S2(=O)=O)c1C

>  <CLASS NAME>
true (1)

$$$$
>  <COMPOUND>
CC(=O)OC1(C)CC(C)C(=O)C(C(O)CC2CC(=O)NC(=O)C2)C1 (stereo unspecified)

>  <CLASS NAME>
true (1)

$$$$

----------
- ASSAY NAME: Peg3 promoter luciferase inhibitors, potency, dose response, cell-based, HeLa, CREF/GAPDH counter-screen panel (AID 624167)
- STUDY CONDITIONS: CREF/GAPDH counter-screens; GAPDH; mean of runs
Calls of active or inactive are those of the source.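 How the source made its calls: active means mean IC50 for reducing PEG3 promoter reporter signal at or below a set limit, with IC50 above the limit in both counter screens; inactive means the rest, including counter screen hits.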
Labels: active, inactive

>  <COMPOUND>
C=CCn1c(COc2ccccc2)nnc1SC(C)C(=O)N/N=C/c1cc(Cl)ccc1O (stereo not given)

>  <CLASS NAME>
inactive

$$$$
>  <COMPOUND>
Clc1ccccc1/C=C/c1nc(-c2ccccn2)no1

>  <CLASS NAME>
active

$$$$
>  <COMPOUND>
O=C(CCn1cnc(-c2ccccc2)c1-c1ccccc1)N/N=C/c1ccccc1O

>  <CLASS NAME>
inactive

$$$$
>  <COMPOUND>
CN1OC[C@@H]2CN(S(=O)(=O)c3cccc(C(F)(F)F)c3)[C@H](c3ccc(-c4cc5ccccc5o4)cc3)C[C@@H]21

>  <CLASS NAME>
inactive

$$$$
>  <COMPOUND>
CN(C)c1ccc(C=c2c3ccccc3n3c2cc(-c2ccccc2)[n+]3C)cc1

>  <CLASS NAME>
active

$$$$
>  <COMPOUND>
Cc1nc(C)c(C(=O)N/N=C/c2cc(Br)ccc2O)s1

>  <CLASS NAME>
inactive

$$$$
>  <COMPOUND>
N=c1n(CC(=O)c2ccc([N+](=O)[O-])cc2)c2ccccc2n1Cc1ccc(Cl)cc1

>  <CLASS NAME>
inactive

$$$$
>  <COMPOUND>
CN1C/C(=C/c2ccccc2[N+](=O)[O-])C(=O)/C(=C\c2ccccc2[N+](=O)[O-])C1

>  <CLASS NAME>
inactive

$$$$
>  <COMPOUND>
COc1cc(/C=C2\SC(=Nc3ccccc3OC)NC2=O)ccc1O

>  <CLASS NAME>
inactive

$$$$
>  <COMPOUND>
Cc1cc(C)c2sc(NNC(=O)c3ccc(S(=O)(=O)N4CCc5ccccc5C4)cc3)nc2c1

>  <CLASS NAME>
active

$$$$
>  <COMPOUND>
CS(=O)(=O)c1ccc(-c2cn3cc(C(=O)O)ccc3n2)cc1

>  <CLASS NAME>
active

$$$$
>  <COMPOUND>
Cc1ccc(-n2c(N)c(C(=O)Nc3c(C)n(C)n(-c4ccccc4)c3=O)c3nc4ccccc4nc32)cc1

>  <CLASS NAME>
active

$$$$
>  <COMPOUND>
COc1ccc(C(NC(C)=O)c2ccc3cccnc3c2O)c(OC)c1 (stereo not given)

>  <CLASS NAME>
inactive

$$$$
>  <COMPOUND>
O=C(N/N=C/c1cc([N+](=O)[O-])ccc1O)c1ccc(COc2ccc3c(c2)CCC3)o1

>  <CLASS NAME>
inactive

$$$$
>  <COMPOUND>
CCc1ccc(/C=C2\SC(=S)N(CCCC(=O)Nc3cc(C)on3)C2=O)cc1

>  <CLASS NAME>
active

$$$$
>  <COMPOUND>
O=C(CNC(=O)C(c1ccccc1)c1ccccc1)N/N=C/c1ccc(O)cc1O

>  <CLASS NAME>
inactive

$$$$
>  <COMPOUND>
CCCn1nc(C(=O)Nc2nc(-c3ccccn3)cs2)c2ccccc2c1=O

>  <CLASS NAME>
inactive

$$$$
>  <COMPOUND>
CC1=CC2/C=C(\C)CCC(O)C(O)/C=C/C(=O)C23C(=O)NC(CC(C)C)C3C1C (stereo not given)

>  <CLASS NAME>
active

$$$$
>  <COMPOUND>
COC(=O)C1C=CC(OC2OC(COC(C)=O)C(OC(C)=O)C(OC(C)=O)C2OC(C)=O)n2c(=O)n(-c3ccccc3)c(=O)n21 (stereo not given)

>  <CLASS NAME>
active

$$$$
>  <COMPOUND>
COc1cccc(/C=N/NC(=O)c2c(C)nc3ccc(Cl)cn23)c1O

>  <CLASS NAME>
inactive

$$$$
>  <COMPOUND>
CC(C)(C)c1ccc(Cn2c(=O)cnc3ccccc32)cc1

>  <CLASS NAME>
active

$$$$
>  <COMPOUND>
COC1CC(C)C(OC)c2cc(O)cc(c2O)NC(=O)C(C)=CC=CC(C)C(OC(N)=O)C(C)=CC(C)C1OC (stereo not given)

>  <CLASS NAME>
inactive

$$$$
>  <COMPOUND>
CCC(c1nnnn1-c1ccc2c(c1)OCCO2)N1CCC(n2c(=O)[nH]c3ccccc32)CC1 (stereo not given)

>  <CLASS NAME>
active

$$$$
>  <COMPOUND>
CCCC(=O)NC(c1ccc(C)cc1)c1ccc2cccnc2c1O (stereo not given)

>  <CLASS NAME>
inactive

$$$$
>  <COMPOUND>
CS(=O)(=O)Nc1cccc(NC(=O)C2Cc3c(-c4cccc(F)c4)ccnc3O2)c1 (stereo not given)

>  <CLASS NAME>
inactive

$$$$
>  <COMPOUND>
NS(=O)(=O)c1ccc(CCNc2nn3c(-c4ccc(F)c(Cl)c4)cnc3s2)cc1

>  <CLASS NAME>
active

$$$$
>  <COMPOUND>
COc1ccc(/C=C2\SC(=S)N(CCCC(=O)NNC(=O)c3ccccc3O)C2=O)cc1

>  <CLASS NAME>
inactive

$$$$
>  <COMPOUND>
CC(=O)NC(c1ccc(Cl)cc1)c1ccc2cccnc2c1O (stereo not given)

>  <CLASS NAME>
inactive

$$$$
>  <COMPOUND>
O=C(Nc1ccccc1)c1nc[nH]c1C(=O)NCCCCCCNC(=O)c1[nH]cnc1C(=O)Nc1ccccc1

>  <CLASS NAME>
inactive

$$$$
>  <COMPOUND>
CC(=O)NC(c1ccc(Cl)cc1Cl)c1ccc2cccnc2c1O (stereo not given)

>  <CLASS NAME>
inactive

$$$$
>  <COMPOUND>
CCC(=O)NC(c1ccc(C)cc1)c1ccc2cccnc2c1O (stereo not given)

>  <CLASS NAME>
inactive

$$$$
>  <COMPOUND>
O=C(CCSc1nc2ccccc2s1)N/N=C/c1c(O)ccc2ccccc12

>  <CLASS NAME>
inactive

$$$$
>  <COMPOUND>
CCSc1nc2ccccc2n1C(=O)/C=C\c1ccc(OC)c(OC)c1

>  <CLASS NAME>
active

$$$$
>  <COMPOUND>
CC1CC(C)C(=O)C(C(CC2CC(=O)NC(=O)C2)OC(=O)CC(=O)c2ccccc2)C1 (stereo not given)

>  <CLASS NAME>
active

$$$$
>  <COMPOUND>
Cc1ccsc1/C=N/Nc1cccc(C(=O)O)c1

>  <CLASS NAME>
active

$$$$
>  <COMPOUND>
COc1ccc(C(NC(=O)C(C)C)c2ccc3cccnc3c2O)cc1 (stereo not given)

>  <CLASS NAME>
inactive

$$$$
>  <COMPOUND>
COc1ccc(-n2c(O)c(/C=N/Nc3nc(C)cc(C)n3)c3ccccc3c2=O)cc1OC

>  <CLASS NAME>
inactive

$$$$
>  <COMPOUND>
CC(=O)c1sc2c(c1OC(=O)c1ccc(Cl)cc1Cl)c(=O)n(-c1ccccc1)c(=S)n2-c1ccccc1

>  <CLASS NAME>
active

$$$$
>  <COMPOUND>
CCCCC(=O)NC(c1ccccc1)c1ccc2cccnc2c1O (stereo not given)

>  <CLASS NAME>
inactive

$$$$
>  <COMPOUND>
CS(=O)(=O)c1ccc(-c2sc3ccccc3c2C#CCCO)cc1

>  <CLASS NAME>
active

$$$$
